Target: recombinant human matriptase (Homo sapiens (Human), UniProt Q9Y5Y6)
Sequence (Q9Y5Y6 615-855, other chains not shown): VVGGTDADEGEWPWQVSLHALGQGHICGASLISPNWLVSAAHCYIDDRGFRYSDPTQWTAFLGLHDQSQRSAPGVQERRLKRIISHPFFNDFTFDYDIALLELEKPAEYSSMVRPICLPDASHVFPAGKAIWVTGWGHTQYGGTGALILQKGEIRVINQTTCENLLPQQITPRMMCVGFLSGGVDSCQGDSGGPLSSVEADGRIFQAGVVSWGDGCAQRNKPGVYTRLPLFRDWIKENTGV
Experiment: Matriptase inhibition, Ki determination
Details: purified recombinant human matriptase, Boc-Gln-Ala-Arg-AMC substrate, pH 7.4
READOUT_LABEL: pKi
The meaning of pKi here: minus log10 of the concentration in molar units.

**Query** Kindly indicate its recorded pKi. Item: C[C@H](NC(=O)[C@@H](N)CCC(N)=O)C(=O)N[C@@H](CCCNC(=N)N)C(=O)c1nc2ccccc2s1 [Comparative #2, reference compound]
**Result** 10.06

**Query** Kindly indicate its recorded pKi. Item: N=C(N)NCCCCC(=O)N[C@@H](CCC(N)=O)C(=O)N[C@@H](Cc1ccccc1)C(=O)N[C@@H](CCCNC(=N)N)C(=O)c1nc2ccccc2s1
**Result** 9.87
